- assay notes: chemical genetic growth profiling, strain panel (AID 1159580);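 further: tested at 20 µM; growth read once vehicle control cultures reached saturation at 30 °C; 1 = growth at the plate median or of vehicle wells; lower values mean less growth of the strain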
- experimental context: S. cerevisiae deletion strains, growth OD, locus YOR061W, strain CKA2, stronger effect = lower value
About 2,000 (36%) of roughly 5,500 compounds were called active. Inconclusive results (about 18%) are left out. This is one part of the list.
Recorded measurements of normalized growth, one per entry

{"columns": ["compound", "normalized growth"],
 "data": [
  ["CCCC(C(=O)OCCN(CC)CC)(c1ccccc1)c1ccccc1", "1.01 (inactive)"],
  ["CC(=O)N=c1sc(S(N)(=O)=O)nn1C", "1.01 (inactive)"],
  ["COc1cc([C@H]2Oc3cc([C@H]4Oc5cc(O)cc(O)c5C(=O)[C@@H]4O)ccc3O[C@@H]2CO)ccc1O", "1 (inactive)"],
  ["CCCCSP(=O)(SCCCC)SCCCC", "1.01 (inactive)"],
  ["NC(N)=NCCCC(NC(=O)C(N)Cc1ccc(O)cc1)C(=O)O (stereo not drawn)", "0.988 (inactive)"],
  ["NC(N)=NCCC[C@@H](NC(=O)[C@@H](N)Cc1ccc(O)cc1)C(=O)O", "1.01 (inactive)"],
  ["C[C@@H](N)[C@@H](O)c1ccccc1", "0.98 (inactive)"],
  ["CCN(CC)C(C)CN1c2ccccc2Sc2ccccc21 (stereo not drawn)", "0.988 (inactive)"],
  ["Cc1onc(-c2ccccc2)c1C(=O)Sc1ccc(C(F)(F)F)cn1", "0.765 (inactive)"],
  ["O=C1/C(=C/c2ccc(C(F)(F)F)cc2)COc2ccccc21", "0.879 (inactive)"],
  ["CC(CN(C)C)CN1c2ccccc2CCc2ccccc21 (stereo not drawn)", "1.01 (inactive)"],
  ["CC(=O)O[C@H]1CC[C@]2(C)C3C(=O)[C@@H](OC(C)=O)[C@@]4(C)C(C[C@@H]5O[C@]6(CCC(C)CO6)[C@@H](C)[C@@H]54)C3CC[C@H]2C1 (stereo partly drawn)", "1 (inactive)"],
  ["Cc1cccc(Nc2ccncc2S(=O)(=O)NC(=O)NC(C)C)c1", "1.01 (inactive)"],
  ["CCCC(CCC)C(=O)O", "0.998 (inactive)"],
  ["N[C@@H]1[C@@H](O)[C@H](O)[C@@H](CO)O[C@H]1O", "1 (inactive)"],
  ["O=C(NNc1ccc(Cl)cc1)c1ccc(F)cc1F", "0.399 (active)"],
  ["CC(CN1c2ccccc2Sc2cccnc21)N(C)C (stereo not drawn)", "1.02 (inactive)"],
  ["C[C@H](CCC(=O)O)[C@H]1CCC2C3C(CC[C@@]21C)[C@@]1(C)CC[C@@H](O)C[C@H]1C[C@H]3O (stereo partly drawn)", "1.06 (inactive)"],
  ["O=C1/C(=C/c2cccs2)COc2ccccc21", "0.813 (inactive)"],
  ["Cc1cc(O)c(C=O)c2c1C(=O)Oc1c(C)c(O)c3c(c1O2)C(O)OC3=O (stereo not drawn)", "0.963 (inactive)"],
  ["CNC(=O)Oc1ccc2c(c1)[C@]1(C)CCN(C)[C@@H]1N2C", "1.02 (inactive)"],
  ["O=c1[nH]cnc2[nH]ncc12", "1.01 (inactive)"],
  ["CSC(=NNc1ccccc1)NC(=O)c1c(Cl)cccc1Cl", "0.798 (inactive)"],
  ["CC(CN(C)C)CN1c2ccccc2Sc2ccccc21 (stereo not drawn)", "0.996 (inactive)"],
  ["COc1c(Cl)ccc(Cl)c1C(=O)O", "1.01 (inactive)"],
  ["Nc1ccn(C2O[C@H](CO)[C@@H](O)[C@H]2O)c(=O)n1 (stereo partly drawn)", "1.01 (inactive)"],
  ["CCCCC[C@H](CC(=O)NO)C(=O)N[C@H](C(=O)N1CCC[C@H]1CO)C(C)C", "1 (inactive)"],
  ["CN(C)CCOC(=O)COc1ccc(Cl)cc1", "1.03 (inactive)"],
  ["CC1CCC2(OC1)OC1CC3C4CCC5C[C@@H](O)CCC5(C)C4=CCC3(C)C1[C@@H]2C (stereo partly drawn)", "1 (inactive)"],
  ["CC(=O)O[C@H]1CC[C@]2(C)C3=CC(=O)[C@@]4(C)C(C[C@@H]5OC6(OCC(C)CC6Br)[C@@H](C)[C@@H]54)C3CC[C@H]2C1 (stereo partly drawn)", "0.992 (inactive)"],
  ["NCC(CC(=O)O)c1ccc(Cl)cc1 (stereo not drawn)", "1.02 (inactive)"],
  ["COc1cc(CC/C(C)=N\\O)ccc1OCc1ccc(Cl)c(Cl)c1", "0.818 (inactive)"],
  ["C[C@H](N)[C@H](O)c1cccc(O)c1", "0.996 (inactive)"],
  ["NC(N)=O", "0.997 (inactive)"],
  ["COc1cc(CC/C(C)=N/O)ccc1OCc1ccc(Cl)cc1Cl", "0.966 (inactive)"],
  ["COc1cc2c(cc1/C=C/C(=O)c1cc(OC)c(OC)cc1OC)OCO2", "0.975 (inactive)"],
  ["C[C@H](N)[C@H](O)c1ccccc1", "0.998 (inactive)"],
  ["C[C@]12C=CC(=O)C=C1CCC1C3C[C@@H](O)[C@](O)(C(=O)CO)[C@@]3(C)C[C@H](O)[C@@]12F (stereo partly drawn)", "1.01 (inactive)"]
]}

Reference source for all entries: PubChem BioAssay AID1159580
